# target entity: recombinant Mcl-1 (residues 172-327) (Homo sapiens (Human), UniProt Q07820)
# Sequence (Q07820 172-327): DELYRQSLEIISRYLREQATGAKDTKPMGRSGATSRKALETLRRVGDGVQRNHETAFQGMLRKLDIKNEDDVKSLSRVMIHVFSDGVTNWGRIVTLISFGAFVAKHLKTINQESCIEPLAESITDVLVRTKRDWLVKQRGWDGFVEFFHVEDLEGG
# assay overview: Bak peptide fluorescence polarization anisotropy competition assay, Mcl-1
# Assay type: binding
# condition: read-out: Ki for inhibition of Mcl-1
quantity kind: Ki

Reference set (6 entries):
| compound | Ki |
| --- | --- |
| CS(=O)(=O)NC(=O)c1[nH]c2cc(Cl)ccc2c1CCCOc1cccc2ccccc12 [Example 52] | 101 to 299 nM |
| Cc1cc(OCCCc2c(C(=O)NS(C)(=O)=O)[nH]c3cccc(C(F)(F)F)c23)ccc1Cl [Example 80] | 101 to 299 nM |
| Cc1ccccc1-c1cccc2c(CCCOc3cc(C)c(Cl)c(C)c3)c(C(=O)NS(C)(=O)=O)[nH]c12 [Example 84] | 101 to 299 nM |
| O=C(NS(=O)(=O)C1CC1)c1sc2ccccc2c1CCCOc1cccc2ccccc12 [Example 67] | 1000 to 9990 nM |
| Cc1ccc(OCCCc2c(C(=O)NS(C)(=O)=O)[nH]c3ccccc23)cc1 [Example 33] | 10000 to 50000 nM |
| Cc1cc(OCCCc2c(C(=O)NS(=O)(=O)CCNC(=O)c3cnco3)[nH]c3ccccc23)cc(C)c1Cl [Example 188] | 1000 to 9990 nM |

Below: the item to evaluate.
Ask: Ki of Cc1cc(OCCCc2c(C(=O)NS(=O)(=O)c3ccc(Oc4ccccc4)cc3)[nH]c3cc(Cl)ccc23)cc(C)c1Cl [Example 222] on recombinant Mcl-1 (residues 172-327) (Homo sapiens (Human), UniProt Q07820)?
Result: 101 to 299 nM

====

# Tested on: NCI-929
# assay overview: Cellular viability in reduced serum, CellTiter-Glo, NCI-929
# Format: cell-based
# condition: Homo sapiens; NCI-929, reduced serum (1% FBS)
quantity kind: pIC50
// pIC50 here means minus log10 of the molar concentration (mol/L)

| molecule | target entity | quantity kind | observed result |
| --- | --- | --- | --- |
| Cc1cc(OCCCc2c(C(=O)NS(=O)(=O)CCNC(=O)c3cccn3C)[nH]c3c(-c4c(CO)nn(C)c4C)cccc23)cc(C)c1Cl [Example 206] | NCI-929 | pIC50 | 4.47 |
| Cc1cc(OCCCc2c(C(=O)NS(=O)(=O)c3ccccc3)[nH]c3c(-c4cccnc4C)cccc23)cc(C)c1Cl [Example 97] | NCI-929 | pIC50 | 5.29 |

Below: the item to evaluate.
Ask: Using the record for Cc1cc(OCCCc2c(C(=O)NS(=O)(=O)CCNC(=O)c3cccn3Cc3ccccc3)[nH]c3c(-c4c(CO)nn(C)c4C)cccc23)cc(C)c1Cl [Example 207] , report its pIC50.
Result: 4.92

====

// reported Ki per item
# target entity: recombinant Mcl-1 (residues 172-327) (Homo sapiens (Human), UniProt Q07820)
# assay overview: Bak peptide fluorescence polarization anisotropy competition assay, Mcl-1
# Type: binding
# condition: read-out: Ki for inhibition of Mcl-1

Reference set (5 entries):
| structure string | quantity kind | observed result |
| --- | --- | --- |
| CS(=O)(=O)NC(=O)c1[nH]c2cccc(Br)c2c1CCCOc1cccc2ccccc12 | Ki | 501 to 999 nM |
| Cc1cc(OCCCc2c(C(=O)NS(=O)(=O)CCNC(=O)c3ccc4c(ccn4C)c3)[nH]c3cc(Cl)ccc23)cc(C)c1Cl | Ki | 101 to 299 nM |
| CC(=O)NCCS(=O)(=O)NC(=O)c1[nH]c2ccccc2c1CCCOc1cc(C)c(Cl)c(C)c1 | Ki | 501 to 999 nM |
| Cc1cc(OCCCc2c(C(=O)NS(=O)(=O)CC3CCN(C(=O)c4cccn4C)CC3)[nH]c3ccccc23)cc(C)c1Cl | Ki | 301 to 500 nM |
| Cc1cc(OCCCc2c(C(=O)NS(=O)(=O)C3CCN(C(=O)C4CCCCC4)CC3)[nH]c3cc(Cl)ccc23)cc(C)c1Cl | Ki | 301 to 500 nM |

Ask: Using the record for Cc1cccc(OCCCc2c(C(=O)NS(C)(=O)=O)[nH]c3ccccc23)c1 , report its Ki.
Result: 10000 to 50000 nM

Ask: Using the record for Cc1cc(OCCCc2c(C(=O)NS(C)(=O)=O)[nH]c3cc(Br)ccc23)cc(C)c1Cl , report its Ki.
Result: 301 to 500 nM
